# testTarget: T1, human TSLP recombinant protein (human, UniProt Q969D9 29-159, biotinylated in the blocking and cell-binding assays (sites not given))
# T1 construct: also called biotinylated human TSLP protein
# assayRemarks: ELISA on coated human TSLP;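 further: binding detected by TMB colour development for 10 min at 37 °C, then absorbance measured at 450 nm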
metricName: pEC50
Recall that pEC50 is obtained by taking minus log10 of the concentration measured in molar.

Ab21 (antibody, V domains shown, Humanized; also called h71G4VHv3/h71G4VKv1) VH: QVQLVQSGAEVKKPGSSVKVSCKASGYTFTDYWMHWVRQAPGQGLEWMGTIDNSDSDTTYNQKFQGRVTMTRDTSTSTVYMELSSLRSEDTAVYYCARSVDGYLDYWGQGTLVTVSS VL: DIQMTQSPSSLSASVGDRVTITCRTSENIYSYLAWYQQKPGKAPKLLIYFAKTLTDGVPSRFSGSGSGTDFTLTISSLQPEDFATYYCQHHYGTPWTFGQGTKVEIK : 9.55

// below: pEC50 requested for another binder
// query Write down pEC50 measured for item Ab4 (antibody, V domains shown, Humanized; also called h39G5VHv4/h39G5VKv1) VH: EVQLVQSGAEVKKPGESLRISCKASGYSFISYWIHWVRQMPGKGLEWMGIIDPSDSDTSLNQSFQGHVTISADKSISTAYLQWSSLKASDTAMYYCARSLDGYYDYWGQGTLVTVSS VL: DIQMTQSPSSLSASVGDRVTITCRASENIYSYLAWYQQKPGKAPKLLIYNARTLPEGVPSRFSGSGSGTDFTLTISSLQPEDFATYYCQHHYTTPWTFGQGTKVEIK
// result 9.41
